# test_protocol: physchem
# Excerpt: In regard to initial testing, a simple pH titration of the prospective pH-switch structure in physiological saline is fast and easy and provides useful information about the key properties one is attempting to achieve. Typically new structures that may be suitable as advanced pH-switch components are first assessed for their pS value. […]
reported_endpoint: pKa
Numbers only.

Provide only the value of recorded pKa for CCCCCCCC(=O)O [octanoic acid]
5.5
